// provenance: patent US20210094955A1

- test.name: Solubility test, Test Method 1 (sample approx. 150 μg/mL, shaken 10 minutes at room temperature, filtrate quantified by HPLC)
- Type: physicochemical
- experimental.context: pH 5, thermodynamic from solid, FeSSIF (artificial intestinal fluid, fed state), pH approx. 5.0, 10 minutes shaking, approx. 150 μg/mL added, in terms of free form, read-out: Solubility FeSSIF
Parameter: solubility at 10 min. Scope: all listed entries.
attribute.measured: solubility at 10 min

[[record]]
compound = "Cc1nsc(-c2nnc3n2CCN(C(=O)c2ccc(F)cc2)[C@@H]3C)n1.O=S(=O)(O)O"
result = "> 100 µg/mL"

[[record]]
compound = "Cc1nsc(-c2nnc3n2CCN(C(=O)c2ccc(F)cc2)[C@@H]3C)n1.Cl"
result = "> 100 µg/mL"

[[record]]
compound = "Cc1nsc(-c2nnc3n2CCN(C(=O)c2ccc(F)cc2)[C@@H]3C)n1.O=S(=O)(O)c1ccccc1"
result = "> 100 µg/mL"

[[record]]
compound = "Cc1nsc(-c2nnc3n2CCN(C(=O)c2ccc(F)cc2)[C@@H]3C)n1 [Compound A, reference compound]"
result = "31.9 µg/mL"

[[record]]
compound = "CS(=O)(=O)O.Cc1nsc(-c2nnc3n2CCN(C(=O)c2ccc(F)cc2)[C@@H]3C)n1"
result = "> 100 µg/mL"

[[record]]
compound = "Br.Cc1nsc(-c2nnc3n2CCN(C(=O)c2ccc(F)cc2)[C@@H]3C)n1"
result = "> 100 µg/mL"


---

- test.name: Solubility test, Test Method 2 (sample approx. 300 μg/mL, shaken 10 minutes at room temperature, filtrate quantified by HPLC)
- Assay type: physicochemical
- experimental.context: pH 6.8, fassgf or other biorelevant, thermodynamic from solid, JP2 (Japanese Pharmacopoeia 2nd Fluid for disintegration test), 10 minutes shaking, approx. 300 μg/mL added, in terms of free form, read-out: Solubility JP2
attribute.measured: solubility at 10 min

[[record]]
record_smiles = "Cc1ccc(S(=O)(=O)O)cc1.Cc1nsc(-c2nnc3n2CCN(C(=O)c2ccc(F)cc2)[C@@H]3C)n1"
result = "> 100 µg/mL"


---

- test.name: Solubility test, Test Method 1 (sample approx. 150 μg/mL, shaken 10 minutes at room temperature, filtrate quantified by HPLC)
- Assay type: physicochemical
- experimental.context: pH 6.8, aqueous buffer, thermodynamic from solid, JP2 (Japanese Pharmacopoeia 2nd Fluid for disintegration test), 10 minutes shaking, approx. 150 μg/mL added, in terms of free form, read-out: Solubility JP2
attribute.measured: solubility at 10 min

[[record]]
compound = "Br.Cc1nsc(-c2nnc3n2CCN(C(=O)c2ccc(F)cc2)[C@@H]3C)n1"
result = "> 100 µg/mL"

[[record]]
compound = "Cc1nsc(-c2nnc3n2CCN(C(=O)c2ccc(F)cc2)[C@@H]3C)n1.O=S(=O)(O)c1ccccc1"
result = "> 100 µg/mL"

[[record]]
compound = "Cc1nsc(-c2nnc3n2CCN(C(=O)c2ccc(F)cc2)[C@@H]3C)n1.Cl"
result = "> 100 µg/mL"

[[record]]
compound = "CS(=O)(=O)O.Cc1nsc(-c2nnc3n2CCN(C(=O)c2ccc(F)cc2)[C@@H]3C)n1"
result = "> 100 µg/mL"

[[record]]
compound = "Cc1nsc(-c2nnc3n2CCN(C(=O)c2ccc(F)cc2)[C@@H]3C)n1 [Compound A, reference compound]"
result = "65.4 µg/mL"

[[record]]
compound = "Cc1nsc(-c2nnc3n2CCN(C(=O)c2ccc(F)cc2)[C@@H]3C)n1.O=S(=O)(O)O"
result = "> 100 µg/mL"


---

Parameter: solubility at 10 min. Scope: all listed entries.
- test.name: Solubility test, Test Method 1 (sample approx. 150 μg/mL, shaken 10 minutes at room temperature, filtrate quantified by HPLC)
- Assay type: physicochemical
- experimental.context: pH 6.8, fassgf or other biorelevant, thermodynamic from solid, JP2 with 15 mM sodium taurocholate, 10 minutes shaking, approx. 150 μg/mL added, in terms of free form, read-out: Solubility JP2 + TC
attribute.measured: solubility at 10 min

[[record]]
compound = "Cc1nsc(-c2nnc3n2CCN(C(=O)c2ccc(F)cc2)[C@@H]3C)n1.O=S(=O)(O)c1ccccc1"
result = "> 100 µg/mL"

[[record]]
compound = "Cc1nsc(-c2nnc3n2CCN(C(=O)c2ccc(F)cc2)[C@@H]3C)n1.Cl"
result = "> 100 µg/mL"

[[record]]
compound = "Cc1nsc(-c2nnc3n2CCN(C(=O)c2ccc(F)cc2)[C@@H]3C)n1 [Compound A, reference compound]"
result = "82.9 µg/mL"

[[record]]
compound = "CS(=O)(=O)O.Cc1nsc(-c2nnc3n2CCN(C(=O)c2ccc(F)cc2)[C@@H]3C)n1"
result = "> 100 µg/mL"

[[record]]
compound = "Cc1nsc(-c2nnc3n2CCN(C(=O)c2ccc(F)cc2)[C@@H]3C)n1.O=S(=O)(O)O"
result = "> 100 µg/mL"

[[record]]
compound = "Br.Cc1nsc(-c2nnc3n2CCN(C(=O)c2ccc(F)cc2)[C@@H]3C)n1"
result = "> 100 µg/mL"


---

- test.name: Solubility test, Test Method 1 (sample approx. 150 μg/mL, shaken 10 minutes at room temperature, filtrate quantified by HPLC)
- Type: physicochemical
- experimental.context: pH 6.5, thermodynamic from solid, FaSSIF (artificial intestinal fluid, fasted state), pH approx. 6.5, 10 minutes shaking, approx. 150 μg/mL added, in terms of free form, read-out: Solubility FaSSIF
attribute.measured: solubility at 10 min

[[record]]
compound = "Cc1nsc(-c2nnc3n2CCN(C(=O)c2ccc(F)cc2)[C@@H]3C)n1 [Compound A, reference compound]"
attribute_measured = "solubility at 10 min"
result = "36.5 µg/mL"

[[record]]
compound = "Br.Cc1nsc(-c2nnc3n2CCN(C(=O)c2ccc(F)cc2)[C@@H]3C)n1"
attribute_measured = "solubility at 10 min"
result = "> 100 µg/mL"

[[record]]
compound = "CS(=O)(=O)O.Cc1nsc(-c2nnc3n2CCN(C(=O)c2ccc(F)cc2)[C@@H]3C)n1"
attribute_measured = "solubility at 10 min"
result = "> 100 µg/mL"

[[record]]
compound = "Cc1nsc(-c2nnc3n2CCN(C(=O)c2ccc(F)cc2)[C@@H]3C)n1.O=S(=O)(O)c1ccccc1"
attribute_measured = "solubility at 10 min"
result = "> 100 µg/mL"

[[record]]
compound = "Cc1nsc(-c2nnc3n2CCN(C(=O)c2ccc(F)cc2)[C@@H]3C)n1.Cl"
attribute_measured = "solubility at 10 min"
result = "> 100 µg/mL"

[[record]]
compound = "Cc1nsc(-c2nnc3n2CCN(C(=O)c2ccc(F)cc2)[C@@H]3C)n1.O=S(=O)(O)O"
attribute_measured = "solubility at 10 min"
result = "> 100 µg/mL"


---

- test.name: Solubility test, Test Method 2 (sample approx. 300 μg/mL, shaken 10 minutes at room temperature, filtrate quantified by HPLC)
- Type: physicochemical
- experimental.context: pH 5, thermodynamic from solid, FeSSIF (artificial intestinal fluid, fed state), pH approx. 5.0, 10 minutes shaking, approx. 300 μg/mL added, in terms of free form, read-out: Solubility FeSSIF
attribute.measured: solubility at 10 min

[[record]]
record_smiles = "Cc1ccc(S(=O)(=O)O)cc1.Cc1nsc(-c2nnc3n2CCN(C(=O)c2ccc(F)cc2)[C@@H]3C)n1"
attribute_measured = "solubility at 10 min"
result = "> 100 µg/mL"


---

- test.name: Solubility test, Test Method 2 (sample approx. 300 μg/mL, shaken 10 minutes at room temperature, filtrate quantified by HPLC)
- Assay type: physicochemical
- experimental.context: pH 6.5, thermodynamic from solid, FaSSIF (artificial intestinal fluid, fasted state), pH approx. 6.5, 10 minutes shaking, approx. 300 μg/mL added, in terms of free form, read-out: Solubility FaSSIF
attribute.measured: solubility at 10 min

[[record]]
record_smiles = "Cc1ccc(S(=O)(=O)O)cc1.Cc1nsc(-c2nnc3n2CCN(C(=O)c2ccc(F)cc2)[C@@H]3C)n1"
attribute_measured = "solubility at 10 min"
result = "> 100 µg/mL"


---

- test.name: Solubility test, Test Method 2 (sample approx. 300 μg/mL, shaken 10 minutes at room temperature, filtrate quantified by HPLC)
- Format: physicochemical
- experimental.context: pH 1.2, simulated gastric fluid, thermodynamic from solid, JP1 (Japanese Pharmacopoeia 1st Fluid for disintegration test), 10 minutes shaking, approx. 300 μg/mL added, in terms of free form, read-out: Solubility JP1
attribute.measured: solubility at 10 min

[[record]]
record_smiles = "Cc1ccc(S(=O)(=O)O)cc1.Cc1nsc(-c2nnc3n2CCN(C(=O)c2ccc(F)cc2)[C@@H]3C)n1"
result = "> 100 µg/mL"


---

- test.name: Solubility test, Test Method 1 (sample approx. 150 μg/mL, shaken 10 minutes at room temperature, filtrate quantified by HPLC)
- Format: physicochemical
- experimental.context: pH 1.2, simulated gastric fluid, thermodynamic from solid, JP1 (Japanese Pharmacopoeia 1st Fluid for disintegration test), 10 minutes shaking, approx. 150 μg/mL added, in terms of free form, read-out: Solubility JP1
Parameter: solubility at 10 min. Scope: all listed entries.
attribute.measured: solubility at 10 min

[[record]]
compound = "Cc1nsc(-c2nnc3n2CCN(C(=O)c2ccc(F)cc2)[C@@H]3C)n1.O=S(=O)(O)c1ccccc1 [Example 7]"
attribute_measured = "solubility at 10 min"
result = "> 100 µg/mL"

[[record]]
compound = "Cc1nsc(-c2nnc3n2CCN(C(=O)c2ccc(F)cc2)[C@@H]3C)n1 [Compound A, reference compound]"
attribute_measured = "solubility at 10 min"
result = "66.6 µg/mL"

[[record]]
compound = "Cc1nsc(-c2nnc3n2CCN(C(=O)c2ccc(F)cc2)[C@@H]3C)n1.O=S(=O)(O)O [Example 3]"
attribute_measured = "solubility at 10 min"
result = "> 100 µg/mL"

[[record]]
compound = "Br.Cc1nsc(-c2nnc3n2CCN(C(=O)c2ccc(F)cc2)[C@@H]3C)n1 [Example 2]"
attribute_measured = "solubility at 10 min"
result = "> 100 µg/mL"

[[record]]
compound = "Cc1nsc(-c2nnc3n2CCN(C(=O)c2ccc(F)cc2)[C@@H]3C)n1.Cl [Example 1]"
attribute_measured = "solubility at 10 min"
result = "> 100 µg/mL"

[[record]]
compound = "CS(=O)(=O)O.Cc1nsc(-c2nnc3n2CCN(C(=O)c2ccc(F)cc2)[C@@H]3C)n1 [Example 6]"
attribute_measured = "solubility at 10 min"
result = "> 100 µg/mL"

